- Target Or Test System: T1, histidine-tagged human Siglec-7 (NovoProtein) (human, UniProt Q9Y286 19-353)
- T1 construct: Bought protein; also called recombinant human Siglec-7; recombinant Siglec-7; not shown: histidine tag
- T1 sequence (Q9Y286 19-353 limits assumed): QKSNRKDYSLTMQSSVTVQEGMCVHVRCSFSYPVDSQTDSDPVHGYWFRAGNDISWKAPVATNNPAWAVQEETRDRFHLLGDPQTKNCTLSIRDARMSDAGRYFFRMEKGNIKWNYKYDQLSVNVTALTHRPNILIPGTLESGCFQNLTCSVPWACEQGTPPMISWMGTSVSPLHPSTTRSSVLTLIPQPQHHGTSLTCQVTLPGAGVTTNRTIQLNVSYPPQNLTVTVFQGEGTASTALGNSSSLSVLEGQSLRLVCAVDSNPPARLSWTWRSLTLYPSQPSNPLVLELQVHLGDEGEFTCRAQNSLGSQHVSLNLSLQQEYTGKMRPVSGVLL
- Assay Info: BLI, antibody captured
Listed next: entries and their corresponding koff.

[
  {
    "Binder": "S7AB-H8 (antibody, V domains shown, also called parental humanized antibody) VH: QVQLVQSGAEVKKPGASVKISCKASGYAFTNCWMNWVRQAPGQGLEWIGRIFPGNGHTNYAQKFQGRATLTEDTSTSTAYMELSSLRSEDTAVYYCARDYSDYYFDYWGQGTLVTVSS VL: DIQMTQSPSSLSASVGDRVTITCRASQDINTYLNWYQQKPGKAPKLLIYYTSRLHSGVPSRFSGSGSGTDYTLTISSLQPEDFATYYCQQGNTLPWTFGQGTKLEIK",
    "Unit Name": "s⁻¹",
    "koff": 0.000174
  },
  {
    "Binder": "S7AB-H8.26 (antibody, V domains shown) VH: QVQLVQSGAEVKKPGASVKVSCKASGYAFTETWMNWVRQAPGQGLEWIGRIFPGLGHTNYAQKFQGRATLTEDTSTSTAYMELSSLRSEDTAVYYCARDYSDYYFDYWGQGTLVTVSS VL: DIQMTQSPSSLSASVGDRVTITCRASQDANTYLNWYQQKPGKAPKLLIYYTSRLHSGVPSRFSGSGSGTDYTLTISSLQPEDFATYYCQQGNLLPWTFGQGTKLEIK",
    "Unit Name": "s⁻¹",
    "koff": "5.9e-05"
  },
  {
    "Binder": "S7AB-H8.15 (antibody, V domains shown) VH: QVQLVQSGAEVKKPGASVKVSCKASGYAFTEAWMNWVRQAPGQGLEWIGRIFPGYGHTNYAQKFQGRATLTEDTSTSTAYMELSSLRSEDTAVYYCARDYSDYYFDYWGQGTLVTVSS VL: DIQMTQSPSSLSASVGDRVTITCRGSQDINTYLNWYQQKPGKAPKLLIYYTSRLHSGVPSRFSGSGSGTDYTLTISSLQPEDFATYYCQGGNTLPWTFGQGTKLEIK",
    "Unit Name": "s⁻¹",
    "koff": 0.000607
  }
]
